In this section we review reported Hypochromic (%) values for a set of molecules.
system: CT DNA; experiment: CT DNA binding by UV–Vis absorption spectroscopy; design: species or system calf; details: compound 40 µM, CT DNA 0 to 60 µM, Tris-HCl pH 7.4
VALUE_TYPE: Hypochromic (%)

                                   molecule       value_type  result_unit  endpoint_value
0  COc1ccc2nc3cc(Cl)ccc3c(NC(=S)N/N=C/c3ccccc3)c2c1  Hypochromic (%)            %           12.89
1  CC[n+]1c(-c2ccccc2)c2cc(N)ccc2c2ccc(N)cc21 [EtBr, ethidium bromide, reference compound]  Hypochromic (%)            %           35.15
2  COc1ccc2nc3cc(Cl)ccc3c(NC(=S)N/N=C/c3cccc(O)c3)c2c1  Hypochromic (%)            %           14.79
3  Oc1ccc(/C=N/NC(=S)Nc2c3ccccc3nc3ccccc23)cc1  Hypochromic (%)            %           25.52

----------
test system: B16-F10 (murine melanoma); experiment: Alamar blue cytotoxicity assay, B16-F10; type: cell-based; conditions: Mus musculus, 72 h incubation
VALUE_TYPE: IC50

In [3]: df
Out[3]:
                                   compound  endpoint_value
0  COc1ccc2nc3cc(Cl)ccc3c(NC(=S)N/N=C/c3cccc(O)c3)c2c1 [DL-08]         14.8 µM
1  COc1ccc(/C=N/NC(=S)Nc2c3ccc(Cl)cc3nc3ccc(OC)cc23)cc1 [DL-03]         > 60 µM
2  COc1ccc2nc3cc(Cl)ccc3c(NC(=S)N/N=C/c3ccccc3)c2c1 [DL-01]         39.6 µM
3  COc1ccc2nc3cc(Cl)ccc3c(NC(=S)N/N=C/c3ccc(O)cc3)c2c1 [DL-07]         21.1 µM
4  COc1ccc2nc3cc(Cl)ccc3c(NC(=S)N/N=C/c3ccc(Cl)cc3)c2c1 [DL-02]         30.6 µM

----------
system: MRC-5 (human lung fibroblast); test: Alamar blue cytotoxicity assay, non-cancerous MRC-5; assay type: cell-based; conditions: MRC5, 72 h incubation, non-cancerous cell

COMPOUND	COMPARISON_SYMBOL	IC50 / µM
CN(C)c1ccc(/C=N/NC(=S)Nc2c3ccccc3nc3ccccc23)cc1	>	60
COc1ccc2nc3cc(Cl)ccc3c(NC(=S)N/N=C/c3ccc(O)cc3)c2c1	=	23.6
O=[N+]([O-])c1ccc(/C=N/NC(=S)Nc2c3ccccc3nc3ccccc23)cc1	=	26.8
COc1ccc(/C=N/NC(=S)Nc2c3ccccc3nc3ccccc23)cc1	>	70
COc1ccc2nc3cc(Cl)ccc3c(NC(=S)N/N=C/c3cccc(O)c3)c2c1	=	14.4
COc1ccc2nc3cc(Cl)ccc3c(NC(=S)N/N=C/c3ccc(C)cc3)c2c1	>	60
Cc1ccc(/C=N/NC(=S)Nc2c3ccccc3nc3ccccc23)cc1	=	28
COc1cccc2c1C(=O)c1c(O)c3c(c(O)c1C2=O)C[C@@](O)(C(=O)CO)C[C@@H]3O[C@H]1C[C@H](N)[C@H](O)[C@H](C)O1 [DOX, doxorubicin, reference compound]	=	2.22
COc1ccc2nc3cc(Cl)ccc3c(NC(=S)N/N=C/c3ccc(N(C)C)cc3)c2c1	>	60
